B1: Osa-1-4 twister ribozyme (parent)
chain: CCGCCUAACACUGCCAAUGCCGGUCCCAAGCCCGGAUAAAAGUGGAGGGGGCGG

- Variants of: B1
- assay info: self-cleavage, relative activity (ratio to wild type); higher = more cleavage; co-transcriptional
readout type: self-cleavage

Here's what some known entries look like.
mutation_key="G42U G50A" result=0.32
mutation_key="A7G C26G" result=0.19
mutation_key="A28G U12C" result=0.1
mutation_key="A39G C33A" result=0.08
mutation_key="C27G U18G" result=0.17
mutation_key="C27A G22C" result=0.03
mutation_key="C11G G49C" result=0.03
mutation_key="A41U C32A" result=0.1

For every listed record, write down its self-cleavage.
1. A17G G23A
2. A10C C20U
3. A41C G47C

Reply:
[0.43, 0.08, 0.09]
